biological target: ATP-binding cassette sub-family B member 6 (Homo sapiens) (UniProt Q9NP58); test: ABCB6 transporter inhibitors, pilot screen, K562-ABCB6 cells, flow cytometry, validation set (AID 588550); conditions: K562-ABCB6 porphyrin accumulation, 1 h, at 10 µM;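 also: 0% = DMSO wells and 100% = benzethonium chloride 70 µM positive control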
Sequence (Q9NP58 whole entry, looked up): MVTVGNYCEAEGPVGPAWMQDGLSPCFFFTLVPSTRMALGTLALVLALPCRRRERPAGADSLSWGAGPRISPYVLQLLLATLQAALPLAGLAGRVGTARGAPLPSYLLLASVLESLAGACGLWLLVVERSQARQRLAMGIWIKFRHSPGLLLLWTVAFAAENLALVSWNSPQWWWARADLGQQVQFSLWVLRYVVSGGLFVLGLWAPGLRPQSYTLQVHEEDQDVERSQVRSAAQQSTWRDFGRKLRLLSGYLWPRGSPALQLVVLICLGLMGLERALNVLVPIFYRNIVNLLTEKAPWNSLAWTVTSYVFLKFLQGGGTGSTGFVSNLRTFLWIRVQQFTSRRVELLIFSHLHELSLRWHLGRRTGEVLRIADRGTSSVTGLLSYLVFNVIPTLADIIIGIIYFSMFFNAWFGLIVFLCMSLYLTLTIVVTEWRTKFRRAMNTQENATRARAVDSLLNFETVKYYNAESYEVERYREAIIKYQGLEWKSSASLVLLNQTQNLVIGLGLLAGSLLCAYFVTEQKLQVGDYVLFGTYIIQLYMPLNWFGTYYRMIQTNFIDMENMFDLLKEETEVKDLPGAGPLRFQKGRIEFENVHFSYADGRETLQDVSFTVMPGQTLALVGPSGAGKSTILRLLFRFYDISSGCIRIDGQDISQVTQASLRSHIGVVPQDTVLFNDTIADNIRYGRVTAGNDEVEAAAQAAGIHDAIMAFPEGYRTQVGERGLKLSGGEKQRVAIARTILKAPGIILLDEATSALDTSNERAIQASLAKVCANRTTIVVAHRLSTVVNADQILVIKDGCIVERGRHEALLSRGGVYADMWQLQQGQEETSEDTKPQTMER
Activity calls are given as the source filed them.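 The calls were made as follows: active = inhibition above the screen-wide mean plus 3 SD, about 51%; inactive = the rest.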
Assign a class; possible classes are active, inactive

Task: Hi, sorry to bother you, what did the test record for "COc1ccc(C(=O)/C=C/c2ccc(OC(=O)c3cc(OC)c(OC)c(OC)c3)cc2)cc1" ?
Output: inactive

Task: Hi, sorry to bother you, what did the test record for COc1ccccc1C(CC(=O)Nc1ccccc1C)c1ccc(OC(C)C)cc1 (configuration not stated) ?
Output: inactive

Task: Hi, sorry to bother you, what did the test record for CC(C)(C)NCC(O)c1cc(O)cc(O)c1 (configuration not stated) ?
Output: inactive

Task: Hi, sorry to bother you, what did the test record for "NC(=O)c1c(-c2ccccc2)oc2ccc(O)cc12" ?
Output: inactive

Task: Hi, sorry to bother you, what did the test record for Nc1ncnc2c1ncn2C1OC(CO)C(O)C1O (configuration not stated) ?
Output: inactive

Task: Hi, sorry to bother you, what did the test record for "COc1ccc2c(c1)[nH]c1c(=O)n(Cc3ccccn3)cnc12" ?
Output: inactive

Task: Hi, sorry to bother you, what did the test record for "COc1cc2c(cc1O)CC[C@@H]1[C@@H]2CC[C@]2(C)[C@@H](O)CC[C@@H]12" ?
Output: inactive

Task: Hi, sorry to bother you, what did the test record for "CCCN1C[C@H](CSC)C[C@@H]2c3cccc4[nH]cc(c34)C[C@H]21" ?
Output: inactive

Task: Hi, sorry to bother you, what did the test record for "COc1cc2c(cc1OC)-c1cc(OCc3ccccc3Cl)nc(=O)n1CC2" ?
Output: inactive

Task: Hi, sorry to bother you, what did the test record for CC(=O)NCCCC(=O)NC(CCC(=O)OCc1ccccc1)C(=O)OCc1ccccc1 (configuration not stated) ?
Output: inactive

Task: Hi, sorry to bother you, what did the test record for "COc1ccc2nc(Nc3nc(CSc4ccc(C)cc4)cc(=O)[nH]3)nc(C)c2c1" ?
Output: inactive

Task: Hi, sorry to bother you, what did the test record for "NC(N)=NC(=O)c1nc(Cl)c(N)nc1N" ?
Output: inactive

Task: Hi, sorry to bother you, what did the test record for "CN1[C@@H](CC(=O)c2ccccc2)CCC[C@H]1C[C@H](O)c1ccccc1" ?
Output: inactive

Task: Hi, sorry to bother you, what did the test record for CCSc1nc(O)c(C2OC(=O)c3c2ccc(OC)c3OC)c(=O)n1CC (configuration not stated) ?
Output: active

Task: Hi, sorry to bother you, what did the test record for "Cc1nc2sccn2c(=O)c1CCN1CCC(=C(c2ccc(F)cc2)c2ccc(F)cc2)CC1" ?
Output: inactive

Task: Hi, sorry to bother you, what did the test record for "NS(=O)(=O)c1cc2c(cc1Cl)NC(CSCc1ccccc1)=NS2(=O)=O" ?
Output: inactive

Task: Hi, sorry to bother you, what did the test record for "COc1ccc(CNC(=O)C2CCN(C(=O)[C@@H](CC(C)C)NC(=O)OC(C)(C)C)CC2)cc1" ?
Output: inactive

Task: Hi, sorry to bother you, what did the test record for "Cc1ncc(C(=O)O)c(C(=O)O)c1N" ?
Output: inactive

Task: Hi, sorry to bother you, what did the test record for "O=C1OCCN1/N=C/c1ccc([N+](=O)[O-])o1" ?
Output: inactive

Task: Hi, sorry to bother you, what did the test record for "O=S(=O)(NCCCCCNS(=O)(=O)c1ccccc1)c1ccccc1" ?
Output: inactive

Task: Hi, sorry to bother you, what did the test record for COc1ccc(C(=O)C2CCCCC2=O)cc1 (configuration not stated) ?
Output: inactive

Task: Hi, sorry to bother you, what did the test record for "CCN(Cc1ccncc1)Cc1nc(Cc2ccccc2Cl)no1" ?
Output: inactive

Task: Hi, sorry to bother you, what did the test record for "CC(C)NC(=O)c1ccc(C(C)C)cc1" ?
Output: inactive

Task: Hi, sorry to bother you, what did the test record for Cc1ccc2c(c1)C(O)(CC(=O)/C=C/C=C/c1ccccc1)C(=O)N2 (configuration not stated) ?
Output: inactive

Task: Hi, sorry to bother you, what did the test record for "O=c1ccc2ccccc2o1" ?
Output: inactive

Task: Hi, sorry to bother you, what did the test record for COc1ccc(C2CNC(=O)C2)cc1OC1CCCC1 (configuration not stated) ?
Output: inactive

Task: Hi, sorry to bother you, what did the test record for "COc1cc(/C=C(\C#N)C(=O)N2CCc3ccccc32)ccc1O" ?
Output: inactive

Task: Hi, sorry to bother you, what did the test record for CC(C)CN1CC(C(=O)O)CC1=O (configuration not stated) ?
Output: inactive

Task: Hi, sorry to bother you, what did the test record for COc1ccc(NC(=O)C2CSC3c4ccccc4C(=O)N23)cc1 (configuration not stated) ?
Output: inactive

Task: Hi, sorry to bother you, what did the test record for "O=c1cc(Cn2ccnc2)c2cc3c(cc2o1)CCC3" ?
Output: inactive

Task: Hi, sorry to bother you, what did the test record for "COc1ccc(O)c(N)c1" ?
Output: inactive

Task: Hi, sorry to bother you, what did the test record for "N/C(=N/OS(=O)(=O)c1ccc([N+](=O)[O-])cc1)c1ccncc1" ?
Output: inactive

* * *

assay: promoters of myeloid differentiation in arrested cells, primary screen, cell-based, GFP/MAC1 double positive, flow cytometry, validation set (AID 588685); conditions: ER-HoxA9 marrow cells, stronger effect = higher value, normalized: vehicle 0, fulvestrant 100;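 also: compound exposure lasts four days before antibody staining and flow analysis; 0% = DMSO wells and 100% = 5 µM fulvestrant positive control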
Provide the reported differentiation response of each item.
Output spec: scalar in %, unitless text.

Task: Supply differentiation response value. Item: "COC(=O)c1cc(OC)c(OC)cc1NC(=O)Nc1ccc(OC)cc1OC"
Output: 13

Task: Supply differentiation response value. Item: COCCc1ccc(OCC(O)CNC(C)C)cc1 (stereo not given)
Output: 5.13

Task: Supply differentiation response value. Item: "N=c1ccn(CC(=O)NC(N)=O)c2ccccc12"
Output: -3.43

Task: Supply differentiation response value. Item: "CC(=O)NCCCCCCNC(C)=O"
Output: -22.8

Task: Supply differentiation response value. Item: "Cc1ccc(CSCC(=O)NCCCN2CCOCC2)cc1"
Output: 3.18

Task: Supply differentiation response value. Item: "Cn1c2ccccc2c2cc(/C=C(\NC(=O)c3ccccc3)C(=O)O)ccc21"
Output: -14.7

Task: Supply differentiation response value. Item: "C[C@@H]1C[C@H]2[C@@H]3CCC4=CC(=O)C=C[C@]4(C)[C@@]3(F)[C@@H](O)C[C@]2(C)[C@@]1(O)C(=O)COP(=O)(O)O"
Output: -13.1

Task: Supply differentiation response value. Item: "O=C(NCCN1CCCCC1)c1c(O)c2ccccc2[nH]c1=O"
Output: 21.8

Task: Supply differentiation response value. Item: "COC(=O)c1ccc(CC(=O)c2ccc(O)cc2O)o1"
Output: 4.91

Task: Supply differentiation response value. Item: "NS(=O)(=O)c1cc2c(cc1C(F)(F)F)NCNS2(=O)=O"
Output: -3.02

* * *

assay: LAP4-GFP expression modulators in yeast, confirmation, cell-based, cherry picks, flow cytometry, mother/daughter gates (AID 2271);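 also: ratio of sample to DMSO plate mean so 100% equals DMSO level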; details: S. cerevisiae LAP4-GFP strain, 3 h, measured here: mother cell gate response, at 10 µM, stronger effect = higher value, 100 means same as DMSO control
Provide the reported GFP response relative to DMSO of each item.
Output spec: scalar in %, unitless text.

Task: Supply GFP response relative to DMSO value. Item: "Cc1cccn2c(=O)c(/C=C(\C#N)C(=O)NCc3ccco3)c(N3CCC(C(N)=O)CC3)nc12"
Output: 100

Task: Supply GFP response relative to DMSO value. Item: O=C(Nc1ccc(F)cc1)C1CCCN(c2cnccn2)C1 (stereo not drawn)
Output: 100

Task: Supply GFP response relative to DMSO value. Item: "Cc1ccc(N2C(=O)C(Cl)=C(Nc3c(C)n(C)n(-c4ccccc4)c3=O)C2=O)cc1"
Output: 101

* * *

assay: modulators of CIT2-GFP expression in yeast, confirmation, S. cerevisiae, GFP fusion, cherry picks, mother/daughter gates (AID 2274); conditions: S. cerevisiae CIT2-GFP strain, flow cytometry, 3 h; at 10 µM
Activity calls are given as the source filed them.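 The calls were made as follows: active = GFP response above 150% of the DMSO level; inconclusive = fewer than 70 events counted for a yeast strain; inactive = the rest.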
Assign a class; possible classes are active, inactive

Task: Hi, sorry to bother you, what did the test record for "CCSc1nnc(NC(=O)c2nc(S(=O)(=O)Cc3ccc(F)cc3)ncc2Cl)s1" ?
Output: inactive

Task: Hi, sorry to bother you, what did the test record for "Cc1cc(NC(=O)c2ccc3c(c2)OCCO3)ccc1NC(=O)c1cc2ccccc2o1" ?
Output: inactive

Task: Hi, sorry to bother you, what did the test record for "O=C(Nc1cc(Sc2ccccn2)cc([N+](=O)[O-])c1)c1cccc(Cl)c1" ?
Output: inactive

Task: Hi, sorry to bother you, what did the test record for "COc1cc(/C=C2\C(=O)N(CCC#N)N=C2C)c(Br)cc1OC(C)C" ?
Output: inactive

Task: Hi, sorry to bother you, what did the test record for "Cn1ncc(S(=O)(=O)Cc2ccccc2)c(Cl)c1=O" ?
Output: inactive

Task: Hi, sorry to bother you, what did the test record for "Cc1ccc(-c2csc(NC(=O)c3cccc([N+](=O)[O-])c3)n2)cc1" ?
Output: inactive

Task: Hi, sorry to bother you, what did the test record for "CCNc1nc(-c2ccc(Cl)cc2)cs1" ?
Output: inactive

Task: Hi, sorry to bother you, what did the test record for CCC(Sc1nc(=O)cc(N)n1-c1ccccc1)C(=O)Nc1cc(C)on1 (stereo unspecified) ?
Output: inactive

Task: Hi, sorry to bother you, what did the test record for CCC1CCCCN1S(=O)(=O)c1ccc(C(=O)Nc2nnc(-c3ccccc3Cl)o2)cc1 (stereo unspecified) ?
Output: inactive

Task: Hi, sorry to bother you, what did the test record for "CCc1oc2ccccc2c1C(=O)CCN1CCCCC1" ?
Output: inactive

Task: Hi, sorry to bother you, what did the test record for "Clc1ccccc1N=C1NN=C(c2cccs2)CS1" ?
Output: inactive

Task: Hi, sorry to bother you, what did the test record for "Cc1ccccc1NC(=O)COC(=O)c1cc(=O)c2ccccc2o1" ?
Output: inactive

Task: Hi, sorry to bother you, what did the test record for "Nc1c(C(=O)c2cccs2)sc2nsc(SCCN3CCCCC3)c12" ?
Output: active

Task: Hi, sorry to bother you, what did the test record for "O=C(O)c1ccccc1C(=O)N1CCN(c2ccccc2)CC1" ?
Output: inactive

Task: Hi, sorry to bother you, what did the test record for "Cc1c(C)c2ccc(OCC(=O)NCCCn3ccnc3)cc2oc1=O" ?
Output: inactive

Task: Hi, sorry to bother you, what did the test record for "CCOC(=O)c1cc(-c2ccc(/C=C3/C(=O)NC(=O)C(C#N)=C3C)o2)ccc1Cl" ?
Output: inactive

Task: Hi, sorry to bother you, what did the test record for "O=C(OCn1ncc(Br)c(Br)c1=O)c1ccc(F)cc1" ?
Output: inactive

Task: Hi, sorry to bother you, what did the test record for "Cc1occc1-c1nnc(-c2cc([N+](=O)[O-])cc([N+](=O)[O-])c2)o1" ?
Output: inactive

Task: Hi, sorry to bother you, what did the test record for "Cc1cc(C)n(C(=O)/C(C#N)=N\Nc2ccccc2[N+](=O)[O-])n1" ?
Output: inactive

Task: Hi, sorry to bother you, what did the test record for O=C(O)CSC1CC(=O)N(c2cccc(Cl)c2)C1=O (stereo unspecified) ?
Output: inactive

Task: Hi, sorry to bother you, what did the test record for CC1(C(=O)OCc2cc(=O)n3cc(Br)ccc3n2)CC1(Cl)Cl (stereo unspecified) ?
Output: inactive

Task: Hi, sorry to bother you, what did the test record for O=C(O)C1CCC(NSc2ccccc2[N+](=O)[O-])CC1 (stereo unspecified) ?
Output: inactive

Task: Hi, sorry to bother you, what did the test record for Cc1ccc(N2C(=O)C3C4C=CC(CNC(=S)Nc5ccc(F)cc5)(O4)C3C2=O)cc1 (stereo unspecified) ?
Output: inactive

Task: Hi, sorry to bother you, what did the test record for "C=CCNC(=O)/C(=C\c1ccc(OC)cc1)NC(=O)c1ccc([N+](=O)[O-])cc1" ?
Output: inactive

Task: Hi, sorry to bother you, what did the test record for CC(C(=O)NCCc1ccc(F)cc1)N1CCN(Cc2ccccc2)CC1 (stereo unspecified) ?
Output: inactive

Task: Hi, sorry to bother you, what did the test record for "O=S(=O)(/N=C(/Nc1ccc(F)cc1F)c1ccc(Cl)cc1)c1ccccc1" ?
Output: inactive

Task: Hi, sorry to bother you, what did the test record for Cc1cc(C)c(S(=O)(=O)NCC23C=CC(O2)C2C(=O)N(c4ccccc4)C(=O)C23)c(C)c1 (stereo unspecified) ?
Output: inactive

Task: Hi, sorry to bother you, what did the test record for "O=C(CCCCCN1C(=O)c2cccc3cccc(c23)C1=O)N1CCOCC1" ?
Output: inactive

Task: Hi, sorry to bother you, what did the test record for "Cc1cccc(C(=O)NNC(=S)NC(=O)c2ccccc2)c1" ?
Output: inactive

Task: Hi, sorry to bother you, what did the test record for "C/C(=N\NC(=O)Cc1ccc([N+](=O)[O-])cc1)c1cccnc1" ?
Output: inactive

Task: Hi, sorry to bother you, what did the test record for "Oc1cccc(/C=N/c2c(-c3ccco3)nc3ccccn23)c1" ?
Output: inactive

Task: Hi, sorry to bother you, what did the test record for Cc1ccc(CCN2CC(C(=O)NCCCN(C)Cc3ccccc3)CC2=O)cc1 (stereo unspecified) ?
Output: inactive

Task: Hi, sorry to bother you, what did the test record for "COc1ccc2ccccc2c1/C=N/Nc1cccc(C(=O)O)c1" ?
Output: inactive

Task: Hi, sorry to bother you, what did the test record for "COC(=O)/C(=C/c1c[nH]c2ccccc12)[N+](=O)[O-]" ?
Output: inactive

Task: Hi, sorry to bother you, what did the test record for CCOC(=O)C1=C(c2ccccc2)NC(=S)NC1c1cc([N+](=O)[O-])ccc1OC (stereo unspecified) ?
Output: inactive

Task: Hi, sorry to bother you, what did the test record for COC(=O)c1ccc(N2C(=O)CC(Sc3n[nH]c(C)n3)C2=O)cc1 (stereo unspecified) ?
Output: inactive
